Here the recorded ELISA reading is given for each entry.
# system.tested: T1, soluble KDR extracellular domain (ECD) (Calbiochem) (human, UniProt P35968 20-764)
# T1 construct: extracellular domain; Bought protein; also called KDR-ECD; VEGF Receptor 2 D1-7, Cat. #676490
# experimental.details: Limited Antigen ELISA, KDR coat 3.125 ng/mL, supernatant 1:25
No unit in the answer, please; the number alone is enough.

What ELISA reading value was documented for this binder, 24B3 (antibody, V domains shown, Fully human mAb from XenoMouse hybridoma, tested as hybridoma supernatant) VH: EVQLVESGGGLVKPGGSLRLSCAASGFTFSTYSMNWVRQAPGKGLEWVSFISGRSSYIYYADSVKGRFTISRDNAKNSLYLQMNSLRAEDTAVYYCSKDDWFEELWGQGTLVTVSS VL: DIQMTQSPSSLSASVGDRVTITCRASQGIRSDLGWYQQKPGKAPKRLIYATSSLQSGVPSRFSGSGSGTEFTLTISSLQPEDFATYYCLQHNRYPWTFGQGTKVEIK ? 0.07

# lookup: ELISA reading of 1G6 (antibody, V domains shown, Fully human mAb from XenoMouse hybridoma, tested as hybridoma supernatant) VH: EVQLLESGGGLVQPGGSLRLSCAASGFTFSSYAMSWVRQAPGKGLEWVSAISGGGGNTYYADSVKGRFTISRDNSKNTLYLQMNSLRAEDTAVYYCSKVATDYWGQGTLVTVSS VL: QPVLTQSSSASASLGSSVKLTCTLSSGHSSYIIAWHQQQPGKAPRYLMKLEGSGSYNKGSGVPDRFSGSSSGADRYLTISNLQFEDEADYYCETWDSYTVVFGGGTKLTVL 0.12

# lookup: ELISA reading of 21H6 (antibody, V domains shown, Fully human mAb from XenoMouse hybridoma, tested as hybridoma supernatant) VH: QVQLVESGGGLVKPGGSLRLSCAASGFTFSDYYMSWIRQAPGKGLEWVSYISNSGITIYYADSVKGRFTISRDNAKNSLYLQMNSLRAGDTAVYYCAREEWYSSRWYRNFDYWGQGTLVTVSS VL: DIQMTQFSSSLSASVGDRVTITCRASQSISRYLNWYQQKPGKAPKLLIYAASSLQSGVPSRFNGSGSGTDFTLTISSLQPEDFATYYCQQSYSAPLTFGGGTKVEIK 0.15
